- Measurement protocol: acute toxicity in mice
- Experimental setup: mouse, in vivo, ip, read-out: LD 50 i.p.
Recorded endpoint: LD50

Exercise: Which value of LD50 has been reported for CCN(CC)CCNC(=O)c1cc(Cl)c(NC2=NCCN2)cc1OC [Example I] in the records?
Solution: 37.7 to 40.8 mg/kg

====

- Measurement protocol: solubility in water
- Type: physicochemical
- Experimental setup: monohydrochloride prepared for immediate use, read-out: soluble in water, monohydrochloride
Recorded endpoint: solubility

Exercise: State the recorded solubility for this entry: COc1cc(NC2=NCCO2)c(Cl)cc1C(=O)NCC1CCCN1CC1CC1 (stereo not shown)
Solution: ~320 mg/mL
